Quick list: pIC50 per entry.
TARGET OR TEST SYSTEM: UniProt:P29990
Quick note: pIC50 values are minus log10 of concentrations in mol/L.

Sample records with pIC50:
CN[C@@H]1[C@H](O[C@H]2[C@H](O[C@H]3[C@H](O)[C@@H](O)[C@H](NC(=N)N)[C@@H](O)[C@@H]3NC(=N)N)O[C@@H](C)[C@]2(O)CO)O[C@@H](CO)[C@H](O)[C@H]1O [Dihydrostreptomycin]	4.74
CN1CCN(CCCN2c3ccccc3Sc3ccc(C(F)(F)F)cc32)CC1	4.66
NCC[C@H](O)C(=O)N[C@@H]1C[C@H](N)[C@@H](O[C@H]2O[C@H](CN)[C@@H](O)[C@H](O)[C@H]2O)[C@H](O)[C@H]1O[C@H]1O[C@H](CO)[C@@H](O)[C@H](N)[C@H]1O	4.61

Please look at [NH2][Pt]1([NH2])[O]CC(=O)[O]1 and tell me its recorded pIC50 on UniProt:P29990.
4.06

* * *

The reader will find reported IC50 values listed item by item below.
TARGET OR TEST SYSTEM: dengue virus helicase (Dengue virus type 2)
Construct: dengue virus helicase activity
Sequence (P29990 1476-2093): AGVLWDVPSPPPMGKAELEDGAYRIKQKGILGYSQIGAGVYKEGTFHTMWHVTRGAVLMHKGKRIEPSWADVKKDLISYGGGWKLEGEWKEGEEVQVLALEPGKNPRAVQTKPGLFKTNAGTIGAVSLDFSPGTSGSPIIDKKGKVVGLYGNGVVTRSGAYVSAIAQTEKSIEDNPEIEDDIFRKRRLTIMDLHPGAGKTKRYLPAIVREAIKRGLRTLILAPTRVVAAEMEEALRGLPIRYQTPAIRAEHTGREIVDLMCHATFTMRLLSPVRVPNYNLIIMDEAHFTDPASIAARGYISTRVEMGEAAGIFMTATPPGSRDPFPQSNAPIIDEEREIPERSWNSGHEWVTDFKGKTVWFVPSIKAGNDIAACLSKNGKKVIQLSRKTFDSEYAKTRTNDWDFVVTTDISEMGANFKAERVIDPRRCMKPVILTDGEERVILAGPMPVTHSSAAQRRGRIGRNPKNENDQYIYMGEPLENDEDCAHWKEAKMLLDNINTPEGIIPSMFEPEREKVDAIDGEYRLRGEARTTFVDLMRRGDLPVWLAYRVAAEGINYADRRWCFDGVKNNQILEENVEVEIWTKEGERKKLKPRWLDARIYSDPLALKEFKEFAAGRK
PROTOCOL DESCRIPTION: Inhibition of dengue virus helicase activity
Format: biochemical
CONDITION INFO: dengue virus helicase activity; read-out: IC50, inhibitory target enzyme Helicase
Please reply with the bare figure in µM and do not write the unit itself.

CCCCCCCCCCCCCCCCOP(=O)([O-])OCC[N+](C)(C)C [Miltefosine]	17.5

Okay, now this compound:
Give recorded IC50. C[C@@H]1[C@H](O)[C@@H](C)/C=C/C=C/CC/C=C/C=C/C=C/C=C/C(O[C@H]2O[C@H](C)[C@@H](O)[C@H](N)[C@@H]2O)CC2O[C@](O)(CC(O)C(O)CCC(O)CC(O)CC(O)CC(=O)O[C@H]1C)CC(O)C2C(=O)O (some centres unmarked) [Nystatin]
13.1

* * *

Reported values: pIC50 for dengue virus RdRp (Dengue virus type 2, UniProt P29990), one per item.
# pIC50: negative log10 of molar concentration; output just the value

As a guide, the following entries are already answered.
CCN(CCO)CCCC(C)Nc1ccnc2cc(Cl)ccc12 (centres unmarked) [Hydroxychloroquine]	4.02
CN(C)Cc1ccc(S(=O)(=O)n2ccc(/C=C/C(=O)NO)c2)cc1	4.19
CCN[C@@H]1C[C@H](N)[C@@H](O[C@H]2OC(CN)=CC[C@H]2N)[C@H](O)[C@H]1O[C@H]1OC[C@](C)(O)[C@H](NC)[C@H]1O	5.54
NC[C@H]1O[C@H](O[C@H]2[C@H](O)[C@@H](O[C@H]3O[C@H](CO)[C@@H](O)[C@H](N)[C@H]3O)[C@H](N)C[C@@H]2N)[C@H](N)C[C@@H]1O	5.52

Give pIC50 only, for NC[C@@H]1O[C@H](O[C@H]2[C@@H](O)[C@H](O[C@@H]3[C@@H](O)[C@H](N)C[C@H](N)[C@H]3O[C@H]3O[C@H](CO)[C@@H](O)[C@H](O)[C@H]3N)O[C@@H]2CO)[C@H](N)[C@@H](O)[C@@H]1O , using dengue virus RdRp (Dengue virus type 2, UniProt P29990) data.
5.35

// data source = patent US12295967B2
